Some sequences, each annotated with its measured recombinant barcode read abundance (log10).
- assay_name: recombinant barcode read abundance after kanamycin selection (control-corrected) (log10(CPM+1)); higher = more efficient recombination; sequences stand for … in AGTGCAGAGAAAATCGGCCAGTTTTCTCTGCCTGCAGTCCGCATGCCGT…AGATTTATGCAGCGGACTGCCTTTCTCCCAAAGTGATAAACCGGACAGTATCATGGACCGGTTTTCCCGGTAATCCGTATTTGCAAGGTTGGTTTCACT; site = the 11-nt target;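 further: IS621 recombinase and bridge RNA in Escherichia coli cells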
recorded_metric: recombinant barcode read abundance (log10)

[[record]]
entry_sequence = "GGATTCCCTTGGGTTCTAACCTGTTGCCA (site GGAGTCCCTTC)"
recorded_value = 0.242

[[record]]
entry_sequence = "AAGCCACCTTGGGTTCTAACCTGTTGCCT (site GAGCCACCTAG)"
recorded_value = 0.392

[[record]]
entry_sequence = "GGCTTGACTTGGGTTCTAACCTGTTGCCT (site GGCTTGACTAG)"
recorded_value = 0.694

[[record]]
entry_sequence = "TACTATTCTTGGGTTCTAACCTGTTGCCT (site TACTATACTAG)"
recorded_value = 0.0693

[[record]]
entry_sequence = "ATGGTGACTTGGGTTCTAACCTGTTGCCT (site ATGGTGGCTAG)"
recorded_value = 0.0522

[[record]]
entry_sequence = "TGAGTGGCTTGGGTTCTAACCTGTTGCCT (site TGAGCGGCTAG)"
recorded_value = 0.108

[[record]]
entry_sequence = "TGGTCTACTTGGGTTCTAACCTGTTGCTT (site TGGTCTACTAA)"
recorded_value = 0.154


* * *

- assay_name: recombinant barcode read abundance after kanamycin selection (control-corrected) (log10(CPM+1)); higher = more efficient recombination; sequences stand for … in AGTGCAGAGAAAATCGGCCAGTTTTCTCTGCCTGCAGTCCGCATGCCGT…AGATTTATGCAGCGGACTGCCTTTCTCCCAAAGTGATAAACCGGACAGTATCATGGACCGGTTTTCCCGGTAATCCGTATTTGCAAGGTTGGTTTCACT; site = the 11-nt target
recorded_metric: recombinant barcode read abundance (log10)

[[record]]
entry_sequence = "TAGCCACCTTGGGTTCTAACCTGTTGCCT (site GAGCCACCTAG)"
recorded_value = 0.0875

[[record]]
entry_sequence = "TCCTAATCTTGGGTTCTAACCTGTTGCAT (site TCCTAATCTAT)"
recorded_value = 0.607

[[record]]
entry_sequence = "ACGGCGCCTTGGGTTCTAACCTGTTGCCT (site AAGGCGCCTAG)"
recorded_value = 0.0538

[[record]]
entry_sequence = "ACTGAGTCTTGGGTTCTAACCTGTTGCAA (site ACTGAGTCTAT)"
recorded_value = 0.0772

[[record]]
entry_sequence = "CTCTAGTCTTGGGTTCTAACCTGTTGCTT (site CTCTAGTCTAC)"
recorded_value = 0.518

[[record]]
entry_sequence = "CCAACCGCTTGGGTTCTAACCTGTTGCCT (site CGAACCGCTAG)"
recorded_value = 0.043

[[record]]
entry_sequence = "TGACATGCTTGGGTTCTAACCTGTTGCCT (site TGAAATGCTAG)"
recorded_value = 0.108

[[record]]
entry_sequence = "ACTAGACCTTGGGTTCTAACCTGTTGCCT (site ACTAGACCTAG)"
recorded_value = 0.5


Entry source: the supplement of paper PMC11208160
